experiment: In vivo rat PK (CSF/plasma and brain/plasma ratio of tafamidis); details: oral dosing of test compound, over 24 hrs
Measured Quantity: Tafamidis CSF/plasma Ratio over 24 hrs (po)

As a guide, the following entries are already answered.
- Compound: "O=C(c1ccc2nc(-c3cc(Cl)cc(Cl)c3)oc2c1)N1CCC(O)C1 (stereo not shown)"
  Reported Value: "A (A is <0.015)"
- Compound: "O=C(c1ccc2nc(-c3cc(Cl)cc(Cl)c3)oc2c1)N1CCCC(O)C1 (stereo not shown)"
  Reported Value: "A (A is <0.015)"
- Compound: "O=C(c1ccc2nc(-c3cc(Cl)cc(Cl)c3)oc2c1)N1CC(O)C1"
  Reported Value: "A (A is <0.015)"
- Compound: "CC(Cc1ncc[nH]1)OC(=O)c1ccc2nc(-c3cc(Cl)cc(Cl)c3)oc2c1 (stereo not shown)"
  Reported Value: "B (B is ≥0.015 to <0.02)"
- Compound: "CC1(O)CN(C(=O)c2ccc3nc(-c4cc(Cl)cc(Cl)c4)oc3c2)C1"
  Reported Value: "B (B is ≥0.015 to <0.02)"

Dear colleague, I am looking for the recorded Tafamidis CSF/plasma Ratio over 24 hrs (po) of the following compound: `O=C(c1ccc2nc(-c3cc(Cl)cc(Cl)c3)oc2c1)N1CCC(F)(F)C1`
A (A is <0.015)
